Test: Inhibitory activity against monkey renin in vitro.
measurement kind: IC50 (nM)

1. C=CCSC(NC(=O)[C@H](Cc1ccccc1)NS(=O)(=O)N1CCOCC1)C(=O)N[C@@H](CC1CCCCC1)[C@@H](O)CC(=O)NCCN1CCOCC1 (stereo partly specified)
2. CC[C@H](C)CNC(=O)C[C@H](O)[C@H](CC(C)C)NC(=O)C(NC(C)=O)NC(=O)C(Cc1cccc2ccccc12)Cc1cccc2ccccc12 (stereo partly specified)
3. C#CCOC(NC(=O)[C@H](Cc1ccccc1)NS(=O)(=O)N1CCOCC1)C(=O)N[C@@H](CC1CCCCC1)[C@@H](O)[C@@H](O)CC(C)C (stereo partly specified)
4. CC[C@H](C)CNC(=O)C[C@H](O)[C@H](CC(C)C)NC(=O)C(NC(=O)C(Cc1cccc2ccccc12)Cc1cccc2ccccc12)OC (stereo partly specified)
Challenge: Exam item: list the entries in increasing order of IC50. Quick reminder: the answer is the labels in the order asked.
Response given: 3, 1, 4, 2

###

Organism: Bos taurus
Assay: Selectivity ratio towards cathepsin D over renin
measurement kind: Selectivity

Challenge: What value of measured Selectivity is listed for C=CCSC(NC(=O)[C@H](Cc1ccccc1)NS(=O)(=O)N1CCOCC1)C(=O)N[C@@H](CC1CCCCC1)[C@@H](O)[C@@H](O)CC(C)C (stereo partly specified) ?
Response given: 118

Challenge: What value of measured Selectivity is listed for CCCOC(NC(=O)[C@H](Cc1ccccc1)NS(=O)(=O)N1CCOCC1)C(=O)N[C@@H](CC1CCCCC1)C(=O)C(F)(F)C(=O)NCCN1CCOCC1 (stereo partly specified) ?
Response given: 65.5

a. CCSC(NC(=O)[C@H](Cc1ccccc1)NC(=O)OC(C)(C)C)C(=O)N[C@@H](CC1CCCCC1)[C@@H](O)[C@@H](O)CC(C)C (stereo partly specified)
b. CC(C)C[C@H](O)[C@H](O)[C@H](CC1CCCCC1)NC(=O)C(NC(=O)[C@H](Cc1ccccc1)NS(=O)(=O)N1CCOCC1)Sc1cccs1 (stereo partly specified)
c. C#CCOC(NC(=O)[C@H](Cc1ccccc1)NS(=O)(=O)N1CCOCC1)C(=O)N[C@@H](CC1CCCCC1)[C@@H](O)[C@@H](O)CC(C)C (stereo partly specified)
d. C=CCSC(NC(=O)[C@H](Cc1ccccc1)NS(=O)(=O)N1CCOCC1)C(=O)N[C@@H](CC1CCCCC1)[C@@H](O)CC(=O)NCCN1CCOCC1 (stereo partly specified)
Challenge: // ranking: key=Selectivity, reverse=True Quick reminder: the answer is the labels in the order asked.
Response given: c, b, a, d

###

Assay: Inhibitory activity against monkey renin in vitro.
measurement kind: IC50 (µM)

Challenge: What value of measured IC50 is listed for CCOC(NC(=O)C(Cc1cccc2ccccc12)Cc1cccc2ccccc12)C(=O)N[C@@H](CC(C)C)[C@@H](O)CC(=O)NC[C@@H](C)CC (stereo in doubt; 21) ?
Response given: 0.026

A. CC[C@H](C)CNC(=O)C[C@H](O)[C@H](CC(C)C)NC(=O)C(N)NC(=O)C(Cc1cccc2ccccc12)Cc1cccc2ccccc12 (stereo in doubt; 32)
B. CC[C@H](C)CNC(=O)C[C@H](O)[C@H](CC(C)C)NC(=O)C(Cc1c[nH]cn1)NC(=O)C(Cc1cccc2ccccc12)Cc1cccc2ccccc12 (stereo partly drawn)
Challenge: Which item exceeds the other in IC50, A or B ? I would appreciate it if you answered with the label of your choice.
Response given: A

###

Assay: Inhibitory activity against monkey renin in vitro.
pIC50: −log10 of the molar value.
measurement kind: pIC50

Challenge: What value of measured pIC50 is listed for CC[C@H](C)CNC(=O)C[C@H](O)[C@H](CC(C)C)NC(=O)C(NC(=O)C(Cc1cccc2ccccc12)Cc1cccc2ccccc12)[S+](C)[O-] (stereo not given in full) ?
Response given: 6.21

1. CCSC(NC(=O)[C@H](Cc1ccccc1)NC(=O)OC(C)(C)C)C(=O)N[C@@H](CC1CCCCC1)[C@@H](O)[C@@H](O)CC(C)C (stereo not given in full)
2. CC[C@H](C)CNC(=O)C[C@H](O)[C@H](CC(C)C)NC(=O)C(NC(=O)C(Cc1cccc2ccccc12)Cc1cccc2ccccc12)Sc1ccccc1 (stereo not given in full)
Challenge: Could you tell me which of 1 and 2 has the lower pIC50 reading? I would appreciate it if you answered with the label of your choice.
Response given: 2

I. CC[C@H](C)CNC(=O)C[C@H](O)[C@H](CC(C)C)NC(=O)C(NC(=O)C(Cc1cccc2ccccc12)Cc1cccc2ccccc12)Nc1ccccc1 (stereo not given in full)
II. CC[C@H](C)CNC(=O)C[C@H](O)[C@H](CC(C)C)NC(=O)C(NC(=O)C(Cc1cccc2ccccc12)Cc1cccc2ccccc12)SC (stereo not given in full)
III. CC[C@H](C)CNC(=O)C[C@H](O)[C@H](CC(C)C)NC(=O)C(NC(=O)C(Cc1cccc2ccccc12)Cc1cccc2ccccc12)Oc1ccccc1 (stereo not given in full)
Challenge: rank_up(items): orders items by reported pIC50 in ascending numerical order. Quick reminder: the answer is the labels in the order asked.
Response given: III, I, II

A. CCCOC(NC(=O)[C@H](Cc1ccccc1)NS(=O)(=O)N1CCOCC1)C(=O)N[C@@H](CC1CCCCC1)C(=O)C(F)(F)C(=O)NCCN1CCOCC1 (stereo not given in full)
B. C=CCOC(NC(=O)[C@H](Cc1ccccc1)NS(=O)(=O)N1CCOCC1)C(=O)N[C@@H](CC1CCCCC1)[C@@H](O)[C@@H](O)CC(C)C (stereo not given in full)
Challenge: Which item exceeds the other in pIC50, A or B ? I would appreciate it if you answered with the label of your choice.
Response given: B
(B: 9.66, A: 8.68)

P. C=CCSC(NC(=O)[C@H](Cc1ccccc1)NS(=O)(=O)N1CCOCC1)C(=O)N[C@@H](CC1CCCCC1)[C@@H](O)[C@@H](O)CC(C)C (stereo not given in full)
Q. CCNC(NC(=O)C(Cc1cccc2ccccc12)Cc1cccc2ccccc12)C(=O)N[C@@H](CC(C)C)[C@@H](O)CC(=O)NC[C@@H](C)CC (stereo in doubt; 34)
Challenge: Could you tell me which of P and Q has the lower pIC50 reading? I would appreciate it if you answered with the label of your choice.
Response given: Q
(Q: 6.68, P: 9.77)

a. CC(C)C[C@H](O)[C@H](O)[C@H](CC1CCCCC1)NC(=O)C(NC(=O)[C@H](Cc1ccccc1)NS(=O)(=O)N1CCOCC1)Sc1cccs1 (stereo not given in full)
b. CC[C@H](C)CNC(=O)C[C@H](O)[C@H](CC(C)C)NC(=O)C(NC(=O)C(Cc1cccc2ccccc12)Cc1cccc2ccccc12)NC(C)C (stereo in doubt; 36)
Challenge: Which item exceeds the other in pIC50, a or b ? I would appreciate it if you answered with the label of your choice.
Response given: a

###

Biological target: UniProtKB P80209
Sequence (P80209 whole entry): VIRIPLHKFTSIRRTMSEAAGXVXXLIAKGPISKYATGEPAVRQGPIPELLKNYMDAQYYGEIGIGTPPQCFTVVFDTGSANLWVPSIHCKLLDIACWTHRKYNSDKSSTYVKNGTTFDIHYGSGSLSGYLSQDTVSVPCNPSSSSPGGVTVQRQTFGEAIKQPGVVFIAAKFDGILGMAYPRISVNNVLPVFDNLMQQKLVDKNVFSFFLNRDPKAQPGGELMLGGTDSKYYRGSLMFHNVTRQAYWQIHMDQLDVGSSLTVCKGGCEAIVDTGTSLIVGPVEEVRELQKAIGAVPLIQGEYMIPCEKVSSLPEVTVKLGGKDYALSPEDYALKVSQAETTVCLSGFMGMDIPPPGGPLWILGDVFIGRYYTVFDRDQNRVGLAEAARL
measurement kind: IC50 (nM)

Challenge: What value of measured IC50 is listed for C=CCOC(NC(=O)[C@H](Cc1ccccc1)NS(=O)(=O)N1CCOCC1)C(=O)N[C@@H](CC1CCCCC1)[C@@H](O)[C@@H](O)CC(C)C (some centres not stated) ?
Response given: 10.5

1. CCCOC(NC(=O)[C@H](Cc1ccccc1)NS(=O)(=O)N1CCOCC1)C(=O)N[C@@H](CC1CCCCC1)[C@@H](O)C(F)(F)C(=O)NCCN1CCOCC1 (some centres not stated)
2. CCCOC(NC(=O)[C@H](Cc1ccccc1)NS(=O)(=O)N1CCOCC1)C(=O)N[C@@H](CC1CCCCC1)C(=O)C(F)(F)C(=O)NCCN1CCOCC1 (some centres not stated)
3. CCOC(NC(=O)[C@H](Cc1ccccc1)NS(=O)(=O)N1CCOCC1)C(=O)N[C@@H](CC1CCCCC1)[C@@H](O)[C@@H](O)CC(C)C (some centres not stated)
4. CC(C)C[C@H](O)[C@H](O)[C@H](CC1CCCCC1)NC(=O)C(NC(=O)[C@H](Cc1ccccc1)NS(=O)(=O)N1CCOCC1)OCC(F)(F)F (some centres not stated)
Challenge: // ranking: key=IC50, reverse=True Quick reminder: the answer is the labels in the order asked.
Response given: 1, 2, 4, 3
